- target_of_assay: α-glucosidase enzyme (EC3.2.1.20) (Saccharomyces cerevisiae, UniProt P38158)
- Construct: purchased Sigma-Aldrich
- Sequence (P38158 whole entry): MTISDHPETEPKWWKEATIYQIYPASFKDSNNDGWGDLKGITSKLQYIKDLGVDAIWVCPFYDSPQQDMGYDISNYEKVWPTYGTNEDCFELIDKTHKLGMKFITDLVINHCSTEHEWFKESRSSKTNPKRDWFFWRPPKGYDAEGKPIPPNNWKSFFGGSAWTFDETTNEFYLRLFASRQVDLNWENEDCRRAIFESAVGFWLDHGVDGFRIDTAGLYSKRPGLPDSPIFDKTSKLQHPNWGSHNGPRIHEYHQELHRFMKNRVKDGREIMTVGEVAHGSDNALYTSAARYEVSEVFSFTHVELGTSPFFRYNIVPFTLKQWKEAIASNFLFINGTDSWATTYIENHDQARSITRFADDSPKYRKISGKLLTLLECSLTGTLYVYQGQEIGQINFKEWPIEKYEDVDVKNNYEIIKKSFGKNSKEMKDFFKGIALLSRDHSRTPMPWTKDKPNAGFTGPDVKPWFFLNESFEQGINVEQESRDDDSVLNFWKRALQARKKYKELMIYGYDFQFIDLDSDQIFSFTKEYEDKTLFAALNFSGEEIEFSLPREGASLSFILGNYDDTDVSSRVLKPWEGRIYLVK
- protocol_details: biochemical
- Assay type: biochemical
outcome_measure: IC50 (µM)

1. O=C(CSc1nc2ccccc2cc1C=NNC(=O)c1ccccc1)Nc1ccc2ccccc2c1 :: 18.4
2. O=C(CSc1nc2ccccc2cc1C=NNC(=O)c1ccccc1)NCc1ccc(F)cc1 :: 78
3. O=C(CSc1nc2ccccc2cc1C=NNC(=O)c1ccccc1)Nc1ccc(Cl)cc1 :: 235
4. COc1ccc(NC(=O)CSc2nc3ccccc3cc2C=NNC(=O)c2ccccc2)cc1 :: 24.7

====

- target_of_assay: α-glucosidase enzyme (EC3.2.1.20) (Saccharomyces cerevisiae, UniProt P38158)
- Construct: purchased Sigma-Aldrich
- protocol_details: biochemical
- Type: biochemical
- conditions: α-glucosidase inhibition; mean ± SD; read-out: IC50
pIC50: −log10 of the molar value.
outcome_measure: pIC50

1) Cc1cccc(C)c1NC(=O)CSc1nc2ccccc2cc1/C=N/NC(=O)c1ccccc1 :: 4.85

====

- target_of_assay: α-glucosidase enzyme (EC3.2.1.20) (Saccharomyces cerevisiae)
- Construct: purchased Sigma-Aldrich
- protocol_details: biochemical
- Type: biochemical
Flag rule - IC50 less than 90 µM flags TRUE; the remaining entries get FALSE.

1) O=C(CSc1nc2ccccc2cc1C=NNC(=O)c1ccccc1)Nc1cccc(Cl)c1 [Compound 9d] :: FALSE
2) Cc1ccccc1NC(=O)CSc1nc2ccccc2cc1C=NNC(=O)c1ccccc1 [Compound 9h] :: FALSE
3) O=C(CSc1nc2ccccc2cc1C=NNC(=O)c1ccccc1)Nc1ccc(F)cc1 [Compound 9c] :: TRUE
4) O=C(CSc1nc2ccccc2cc1C=NNC(=O)c1ccccc1)Nc1ccc(Br)cc1 [Compound 9f] :: FALSE
5) O=C(CSc1nc2ccccc2cc1C=NNC(=O)c1ccccc1)Nc1ccc([N+](=O)[O-])cc1 [Compound 9g] :: FALSE
6) Cc1ccc(NC(=O)CSc2nc3ccccc3cc2C=NNC(=O)c2ccccc2)cc1 [Compound 9i] :: FALSE
7) Cc1cccc(NC(=O)CSc2nc3ccccc3cc2C=NNC(=O)c2ccccc2)c1C [Compound 9l] :: TRUE
8) O=C(CSc1nc2ccccc2cc1C=NNC(=O)c1ccccc1)NCc1ccccc1 [Compound 9o] :: FALSE
9) O=C(CSc1nc2ccccc2cc1C=NNC(=O)c1ccccc1)Nc1ccccc1F [Compound 9b] :: FALSE
10) CCc1ccc(NC(=O)CSc2nc3ccccc3cc2C=NNC(=O)c2ccccc2)cc1 [Compound 9k] :: TRUE
